Values were extracted from patent US20180099931A1.

- MEASURED_ON: F508delCFTR (Homo sapiens, UniProt P13569, DEL508-508)
- Construct: expressed in transfected cells; host or cells: CFBE41o- human lung-derived epithelial cells (CFBE4lo-F508delCFTR-HRP), doxycycline-inducible
- Sequence (P13569 with tags, fused parts or gaps DEL508-508): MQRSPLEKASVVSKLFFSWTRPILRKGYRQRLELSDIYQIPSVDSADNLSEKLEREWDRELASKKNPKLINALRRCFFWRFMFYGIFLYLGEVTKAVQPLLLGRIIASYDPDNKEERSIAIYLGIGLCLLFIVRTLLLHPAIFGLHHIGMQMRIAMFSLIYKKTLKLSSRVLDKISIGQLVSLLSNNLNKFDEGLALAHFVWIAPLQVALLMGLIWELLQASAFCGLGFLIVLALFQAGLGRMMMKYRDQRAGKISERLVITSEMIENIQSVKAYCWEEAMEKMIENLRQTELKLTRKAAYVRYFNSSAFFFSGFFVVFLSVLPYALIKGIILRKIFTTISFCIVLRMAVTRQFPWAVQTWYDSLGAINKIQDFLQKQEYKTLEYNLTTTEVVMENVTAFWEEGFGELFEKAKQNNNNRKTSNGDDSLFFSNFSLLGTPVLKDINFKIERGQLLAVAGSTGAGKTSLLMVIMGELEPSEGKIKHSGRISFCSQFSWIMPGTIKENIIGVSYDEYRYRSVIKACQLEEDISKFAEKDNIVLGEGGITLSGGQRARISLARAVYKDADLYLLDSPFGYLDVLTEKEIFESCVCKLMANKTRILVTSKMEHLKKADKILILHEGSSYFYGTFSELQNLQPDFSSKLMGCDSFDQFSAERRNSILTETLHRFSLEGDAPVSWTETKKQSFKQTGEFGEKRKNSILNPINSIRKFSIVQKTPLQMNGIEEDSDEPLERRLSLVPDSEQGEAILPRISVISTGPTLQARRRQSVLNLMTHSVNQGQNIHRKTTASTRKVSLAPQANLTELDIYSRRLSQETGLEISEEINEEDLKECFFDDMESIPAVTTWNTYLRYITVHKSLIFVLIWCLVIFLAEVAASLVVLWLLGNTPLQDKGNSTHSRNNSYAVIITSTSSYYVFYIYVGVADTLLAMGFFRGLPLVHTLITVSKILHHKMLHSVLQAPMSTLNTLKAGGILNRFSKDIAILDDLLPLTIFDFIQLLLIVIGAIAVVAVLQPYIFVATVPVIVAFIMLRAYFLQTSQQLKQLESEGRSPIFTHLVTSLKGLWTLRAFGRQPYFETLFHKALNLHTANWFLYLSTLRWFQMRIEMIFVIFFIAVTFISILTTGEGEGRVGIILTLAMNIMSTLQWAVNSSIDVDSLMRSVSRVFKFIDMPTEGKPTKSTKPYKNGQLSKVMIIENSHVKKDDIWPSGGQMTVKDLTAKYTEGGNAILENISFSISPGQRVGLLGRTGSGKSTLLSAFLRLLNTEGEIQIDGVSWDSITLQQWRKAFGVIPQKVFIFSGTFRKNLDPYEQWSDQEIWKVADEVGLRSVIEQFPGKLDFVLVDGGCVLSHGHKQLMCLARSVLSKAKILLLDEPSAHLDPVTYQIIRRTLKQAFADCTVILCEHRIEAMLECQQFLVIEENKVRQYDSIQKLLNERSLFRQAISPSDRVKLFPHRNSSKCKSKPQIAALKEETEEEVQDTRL
- METHOD_NOTES: Cell Surface Expression-Horse Radish Peroxidase (CSE-HRP) Assay
- Assay type: cell-based
- REPORTED_CONDITIONS: test compound without co-corrector; read-out: EC50 (without co-corrector)
Consider the following molecules and their measured EC50 readings.

[
  {
    "QUERY_SMILES": "COc1ccc(C(F)(F)F)cc1CN[C@@H]1[C@@H](C(C)(C)C)[C@H](C(=O)O)N(C(=O)C2CCCCC2)[C@H]1c1ccccc1",
    "EC50": "1 to 10 µM"
  },
  {
    "QUERY_SMILES": "COc1ccc(C2(C)CCC2)cc1CN[C@H]1[C@H](C(C)(C)C)[C@@H](C(=O)O)N(C(=O)[C@@H]2CCCO2)[C@H]1c1ccccc1C(C)C",
    "EC50": "1 to 10 µM"
  },
  {
    "QUERY_SMILES": "COc1cc(C(F)(F)F)ccc1CN[C@H]1[C@H](C(C)(C)C)[C@@H](C(=O)O)N(C(=O)[C@@H]2CCC[C@H](O)C2)[C@H]1c1ccccc1",
    "EC50": "1 to 10 µM"
  },
  {
    "QUERY_SMILES": "COc1cc(C(C)(C)O)ccc1CN[C@H]1[C@H](C(C)(C)C)[C@@H](C(=O)O)N(C(=O)C2CCCCC2)[C@H]1c1ccccc1",
    "EC50": "> 10 µM"
  },
  {
    "QUERY_SMILES": "CCC(CC)Cc1ccc(OC)c(CN[C@H]2[C@H](C(C)(C)C)[C@@H](C(=O)O)N(C(=O)C3CCCCC3)[C@H]2c2ccccc2)c1",
    "EC50": "< 1 µM"
  },
  {
    "QUERY_SMILES": "COc1ncc(C(F)(F)F)cc1N[C@H]1[C@H](C(C)(C)C)[C@@H](C(=O)O)N(C(=O)[C@@H]2CCCCO2)[C@H]1c1cccnc1N(C)C",
    "EC50": "> 10 µM"
  }
]

###

Below, each entry is listed with its recorded pEC50.
- MEASURED_ON: F508delCFTR (Homo sapiens, UniProt P13569, DEL508-508)
- Construct: expressed in transfected cells; host or cells: CFBE41o- human lung-derived epithelial cells (CFBE4lo-F508delCFTR-HRP), doxycycline-inducible
- METHOD_NOTES: Cell Surface Expression-Horse Radish Peroxidase (CSE-HRP) Assay
- Format: cell-based
- REPORTED_CONDITIONS: CSE-HRP; with co-corrector (2 μM of 3-[(2R,4R)-4-({[1-(2,2-difluoro-1,3-benzodioxol-5-yl)cyclopropyl]carbonyl}amino)-7-methoxy-3,4-dihydro-2H-chromen-2-yl]benzoic acid); read-out: EC50 (with co-corrector)
pEC50: −log10 of the molar value.

[
  {
    "COMPOUND": "COc1ccc(C(C)(C)C)cc1CN[C@H]1[C@H](C(C)(C)C)[C@@H](C(=O)O)N(C(=O)[C@H](C)c2ccccc2)[C@H]1c1ccccc1",
    "MEASURED_ON": "F508delCFTR (Homo sapiens, UniProt P13569, DEL508-508)",
    "pEC50": "> 6.00"
  },
  {
    "COMPOUND": "COc1ccc(C(C)(C)C)cc1CN[C@H]1[C@H](C(C)(C)C)[C@@H](C(=O)O)N(C(=O)[C@H](C)OC)[C@H]1c1ccccc1",
    "MEASURED_ON": "F508delCFTR (Homo sapiens, UniProt P13569, DEL508-508)",
    "pEC50": "5.00 to 6.00"
  },
  {
    "COMPOUND": "COc1ccc(C(C)(C)C)cc1CN[C@H]1[C@H](C(C)(C)C)[C@@H](C(=O)O)N(C(=O)CC2CCC(F)(F)CC2)[C@H]1c1ccccc1",
    "MEASURED_ON": "F508delCFTR (Homo sapiens, UniProt P13569, DEL508-508)",
    "pEC50": "5.00 to 6.00"
  },
  {
    "COMPOUND": "COc1ccc(C(C)(C)C)cc1CN[C@H]1[C@H](C(C)(C)C)[C@@H](C(=O)O)N(C(=O)Cc2cccc(O)c2)[C@H]1c1ccccc1",
    "MEASURED_ON": "F508delCFTR (Homo sapiens, UniProt P13569, DEL508-508)",
    "pEC50": "5.00 to 6.00"
  },
  {
    "COMPOUND": "COc1ccc(C(C)(C)C)cc1CN[C@H]1[C@H](C(C)(C)C)[C@@H](C(=O)O)N(C(=O)C2(c3ccccn3)CC2)[C@H]1c1ccccc1",
    "MEASURED_ON": "F508delCFTR (Homo sapiens, UniProt P13569, DEL508-508)",
    "pEC50": "5.00 to 6.00"
  },
  {
    "COMPOUND": "COc1ncc(Br)cc1CN[C@H]1[C@H](C(C)(C)OC)[C@@H](C(=O)O)N(C(=O)C2CCCCC2)[C@H]1c1ccccc1",
    "MEASURED_ON": "F508delCFTR (Homo sapiens, UniProt P13569, DEL508-508)",
    "pEC50": "> 6.00"
  },
  {
    "COMPOUND": "COc1ccc(-c2ccccc2)nc1CN[C@H]1[C@H](C(C)(C)C)[C@@H](C(=O)O)N(C(=O)C2CCCCC2)[C@H]1c1ccccc1",
    "MEASURED_ON": "F508delCFTR (Homo sapiens, UniProt P13569, DEL508-508)",
    "pEC50": "5.00 to 6.00"
  },
  {
    "COMPOUND": "COc1cc(Cl)ccc1CN[C@@H]1[C@@H](C(C)(C)C)[C@H](C(=O)O)N(C(=O)C2CCOC(C)(C)C2)[C@@H]1c1ccccc1N(C)C (mixture of isomers)",
    "MEASURED_ON": "F508delCFTR (Homo sapiens, UniProt P13569, DEL508-508)",
    "pEC50": "5.00 to 6.00"
  },
  {
    "COMPOUND": "COc1ccc(Cl)cc1CN[C@H]1[C@H](C(C)(C)C)[C@@H](C(=O)O)N(C(=O)C2CCCCC2)[C@H]1c1ccccc1",
    "MEASURED_ON": "F508delCFTR (Homo sapiens, UniProt P13569, DEL508-508)",
    "pEC50": "> 6.00"
  },
  {
    "COMPOUND": "COc1cc2c(cc1CN[C@H]1[C@H](C(C)(C)C)[C@@H](C(=O)O)N(C(=O)C3CCCCC3)[C@H]1c1ccccc1)OCO2",
    "MEASURED_ON": "F508delCFTR (Homo sapiens, UniProt P13569, DEL508-508)",
    "pEC50": "5.00 to 6.00"
  },
  {
    "COMPOUND": "CC(C)c1ccccc1[C@H]1[C@@H](NCc2cc(C(C)(C)C)ccc2O)[C@H](C(C)(C)C)[C@@H](C(=O)O)N1C(=O)[C@@H]1CCCO1",
    "MEASURED_ON": "F508delCFTR (Homo sapiens, UniProt P13569, DEL508-508)",
    "pEC50": "> 6.00"
  },
  {
    "COMPOUND": "COc1ccc(-c2ccccc2)cc1CN[C@H]1[C@H](C(C)(C)C)[C@@H](C(=O)O)N(C(=O)C2CCCCC2)[C@H]1c1ccccc1F",
    "MEASURED_ON": "F508delCFTR (Homo sapiens, UniProt P13569, DEL508-508)",
    "pEC50": "> 6.00"
  },
  {
    "COMPOUND": "COc1ccc(OC(F)(F)F)cc1CN[C@H]1[C@H](C(C)(C)C)[C@@H](C(=O)O)N(C(=O)C2CCCCC2)[C@H]1c1ccccc1",
    "MEASURED_ON": "F508delCFTR (Homo sapiens, UniProt P13569, DEL508-508)",
    "pEC50": "> 6.00"
  },
  {
    "COMPOUND": "COc1ncc(Br)cc1CN[C@H]1[C@H](C(C)(C)C)[C@@H](C(=O)O)N(C(=O)C2CCCCC2)[C@H]1c1ccccc1",
    "MEASURED_ON": "F508delCFTR (Homo sapiens, UniProt P13569, DEL508-508)",
    "pEC50": "> 6.00"
  },
  {
    "COMPOUND": "COc1ccc(-c2c(C)noc2C)cc1CN[C@H]1[C@H](C(C)(C)C)[C@@H](C(=O)O)N(C(=O)C2CCCCC2)[C@H]1c1ccccc1",
    "MEASURED_ON": "F508delCFTR (Homo sapiens, UniProt P13569, DEL508-508)",
    "pEC50": "5.00 to 6.00"
  },
  {
    "COMPOUND": "COc1ncc(C(C)(C)C)cc1CN[C@H]1[C@H](C(C)(C)C)[C@@H](C(=O)O)N(C(=O)Cc2c(F)cccc2F)[C@H]1c1ccccc1",
    "MEASURED_ON": "F508delCFTR (Homo sapiens, UniProt P13569, DEL508-508)",
    "pEC50": "> 6.00"
  },
  {
    "COMPOUND": "COc1ccc(C(F)(F)F)cc1CN[C@H]1[C@H](C(C)(C)OC)[C@@H](C(=O)O)N(C(=O)C2CCCCC2)[C@H]1c1ccccc1OC",
    "MEASURED_ON": "F508delCFTR (Homo sapiens, UniProt P13569, DEL508-508)",
    "pEC50": "5.00 to 6.00"
  },
  {
    "COMPOUND": "COc1ccc(C2=CCOC2)cc1CN[C@H]1[C@H](C(C)(C)C)[C@@H](C(=O)O)N(C(=O)C2CCCCC2)[C@H]1c1ccccc1",
    "MEASURED_ON": "F508delCFTR (Homo sapiens, UniProt P13569, DEL508-508)",
    "pEC50": "5.00 to 6.00"
  },
  {
    "COMPOUND": "COc1cc(Cl)ccc1CN[C@@H]1[C@@H](C(C)(C)C)[C@H](C(=O)O)N(C(=O)C2CCCOC2)[C@@H]1c1ccccc1N(C)C (mixture of isomers)",
    "MEASURED_ON": "F508delCFTR (Homo sapiens, UniProt P13569, DEL508-508)",
    "pEC50": "5.00 to 6.00"
  },
  {
    "COMPOUND": "COc1ccc(Cc2ccccc2)cc1CN[C@H]1[C@H](C(C)(C)C)[C@@H](C(=O)O)N(C(=O)C2CCCCC2)[C@H]1c1ccccc1",
    "MEASURED_ON": "F508delCFTR (Homo sapiens, UniProt P13569, DEL508-508)",
    "pEC50": "> 6.00"
  },
  {
    "COMPOUND": "COc1ncc(C(F)(F)F)cc1CN[C@H]1[C@H](C(C)(C)C)[C@@H](C(=O)O)N(C(=O)[C@@H]2CCCO2)[C@H]1c1ccccc1C",
    "MEASURED_ON": "F508delCFTR (Homo sapiens, UniProt P13569, DEL508-508)",
    "pEC50": "5.00 to 6.00"
  },
  {
    "COMPOUND": "COc1ccc(C(F)(F)F)cc1CN[C@@H]1[C@@H](C(C)(C)C)[C@H](C(=O)O)N(C(=O)C2CCC(F)(F)CC2)[C@@H]1c1ccccc1 (racemic)",
    "MEASURED_ON": "F508delCFTR (Homo sapiens, UniProt P13569, DEL508-508)",
    "pEC50": "5.00 to 6.00"
  },
  {
    "COMPOUND": "COc1cc(C(F)(F)F)ccc1CN[C@@H]1[C@@H](C(C)(C)C)[C@H](C(=O)O)N(C(=O)C2CCCOC2)[C@@H]1c1ccccc1N(C)C (mixture of isomers)",
    "MEASURED_ON": "F508delCFTR (Homo sapiens, UniProt P13569, DEL508-508)",
    "pEC50": "5.00 to 6.00"
  },
  {
    "COMPOUND": "COc1ccc(C(C)(C)C)cc1CN[C@H]1[C@H](C(C)(C)C)[C@@H](C(=O)O)N(C(=O)C2CC(C)CCO2)[C@H]1c1ccccc1 (stereo partly drawn)",
    "MEASURED_ON": "F508delCFTR (Homo sapiens, UniProt P13569, DEL508-508)",
    "pEC50": "5.00 to 6.00"
  }
]
